TEST PROTOCOL: Approximate acute toxicity (LD50) in the mouse, single administration per os
CONDITION LABEL: in vivo, po, measured on the seventh day
Provide the recorded LD50 at 168 h for the entries that follow.

COMPOUND: CCOCCN(Cc1ccc(Oc2ccc(N)cc2)cc1)C(=O)C(Cl)Cl [Compound A]
VALUE OBSERVED: > 800 mg/kg

For CCOCCN(Cc1ccc(Oc2ccc(NC(C)=O)cc2)cc1)C(=O)C(Cl)Cl [Compound B] the compound record lists LD50 at 168 h as > 800 mg/kg

* * *

System: Entamoeba histolytica Meah
TEST PROTOCOL: In vitro antiamebic activity by serial dilutions in monophasic Pavlova medium
Assay type: cell-based
CONDITION LABEL: Dosage VI; 48 hours, 37° C.
Mark criterion not met for minimal amoebicidal concentration values under 0.02 µg/mL, and criterion met for everything at or above.

Some entries whose results are on file:
MOLECULE: CCOCCN(Cc1ccc(Oc2ccc(NC(C)=O)cc2)cc1)C(=O)C(Cl)Cl
ASSIGNED CATEGORY: criterion not met

MOLECULE: CCOCCN(Cc1ccc(CN(CCOCC)C(=O)C(Cl)Cl)cc1)C(=O)C(Cl)Cl
ASSIGNED CATEGORY: criterion met

MOLECULE: CN(C(=O)C(Cl)Cl)c1ccc(OC(=O)c2ccco2)cc1 [Diloxanide furoate]
ASSIGNED CATEGORY: criterion met

MOLECULE: CCOCCN(Cc1ccc(Oc2ccc(N)cc2)cc1)C(=O)C(Cl)Cl
ASSIGNED CATEGORY: criterion not met

Shifting focus to the molecule that follows.
Please check the record CCOCCN(Cc1ccc(Oc2ccc([N+](=O)[O-])cc2)cc1)C(=O)C(Cl)Cl [Etofamide] and state if its minimal amoebicidal concentration is at or above 0.02 µg/mL.
criterion not met
